The origin of these recorded values is patent US5304565A.

Biological target: A-II-receptor (membrane fraction of bovine adrenal cortex) (Bos taurus, UniProt P25104)
Construct: prepared from the membrane fraction of bovine adrenal cortex; from tissue; host or cells: bovine adrenal cortex, membrane fraction
Test: Inhibition of binding of angiotensin-II to angiotensin receptor (radio receptor assay, 125I-A-II)
Conditions: 10^-7 M, room temperature, one hour
property: inhibition at 0.1 µM (%)

CCCCc1nc(CC(=O)OC)cc(=O)n1Cc1ccc(-c2ccccc2-c2nnn[nH]2)cc1 [Working Example 16]    31

P. CCCCc1nc2cccc(C)c2c(=O)n1Cc1ccc(-c2ccccc2-c2nn[nH]n2)cc1 [Working Example 26]
Q. CCCc1nc2ccc(OCC(=O)NCc3ccccc3)cc2c(=O)n1Cc1ccc(-c2ccccc2-c2nn[nH]n2)cc1 [Working Example 49]
R. CCCCc1cc(=O)c(C(=O)OCC)cn1Cc1ccc(-c2ccccc2C(=O)O)cc1 [Working Example 1]
Number of compounds to sort: 3. Sort criterion: inhibition at 0.1 µM, ascending. Use the labels to give the requested order.
R, P, Q
(R: 24%, P: 36%, Q: 63%)

---

Molecular target: A-II-receptor (membrane fraction of bovine adrenal cortex) (Bos taurus, UniProt P25104)
Construct: prepared from the membrane fraction of bovine adrenal cortex; from tissue; host or cells: bovine adrenal cortex, membrane fraction
Assay: Inhibition of binding of angiotensin-II to angiotensin receptor (radio receptor assay, 125I-A-II)
Conditions: 10^-7 M, room temperature, one hour
property: inhibition at 0.1 µM (%)

CCCCc1nc2cc(Cl)ccc2c(=O)n1Cc1ccc(-c2ccccc2-c2nn[nH]n2)cc1 [Working Example 25]    18
CCCCc1ncc([N+](=O)[O-])c(=O)n1Cc1ccc(-c2ccccc2-c2nn[nH]n2)cc1 [Working Example 13]    30
CCCCc1nc2ccc(OC)cc2c(=O)n1Cc1ccc(-c2ccccc2-c2nn[nH]n2)cc1 [Working Example 37]    77
CCCCc1cc(=O)c(C(=O)OCC)cn1Cc1ccc(-c2ccccc2-c2nnn[nH]2)cc1 [Working Example 2]    25
CCCCc1nc2ccc(OCC(=O)OC)cc2c(=O)n1Cc1ccc(-c2ccccc2-c2nn[nH]n2)cc1 [Working Example 38]    59

P. CCCCCc1cc(=O)c(C(=O)OCC)cn1Cc1ccc(-c2ccccc2-c2nn[nH]n2)cc1 [Working Example 3]
Q. CCCc1nc2ccc(OCC(=O)N3CCOCC3)cc2c(=O)n1Cc1ccc(-c2ccccc2-c2nn[nH]n2)cc1 [Working Example 48]
Please indicate which entry, P or Q , has the lower recorded inhibition at 0.1 µM value. Selection: enter the item's label.
P

---

Target: A-II-receptor (membrane fraction of bovine adrenal cortex) (Bos taurus)
Construct: prepared from the membrane fraction of bovine adrenal cortex; from tissue; host or cells: bovine adrenal cortex, membrane fraction
Sequence (P25104 1-359): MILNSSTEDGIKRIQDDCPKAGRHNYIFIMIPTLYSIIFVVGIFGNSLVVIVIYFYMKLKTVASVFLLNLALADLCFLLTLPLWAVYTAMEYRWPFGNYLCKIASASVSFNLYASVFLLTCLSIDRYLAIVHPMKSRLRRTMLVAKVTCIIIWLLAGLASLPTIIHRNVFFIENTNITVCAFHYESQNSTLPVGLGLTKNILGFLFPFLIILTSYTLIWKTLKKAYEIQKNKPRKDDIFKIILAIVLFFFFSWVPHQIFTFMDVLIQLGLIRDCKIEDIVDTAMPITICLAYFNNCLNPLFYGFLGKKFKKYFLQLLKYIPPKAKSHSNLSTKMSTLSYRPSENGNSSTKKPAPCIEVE
Experiment: Inhibition of binding of angiotensin-II to angiotensin receptor (radio receptor assay, 125I-A-II)
Details: 10^-6 M, room temperature, one hour
property: inhibition at 1 µM (%)

CCCCc1nc(COC)cc(=O)n1Cc1ccc(-c2ccccc2-c2nnn[nH]2)cc1    73
CCCc1nc2ccc(OCCOC(=O)c3ccccc3)cc2c(=O)n1Cc1ccc(-c2ccccc2-c2nn[nH]n2)cc1    83
CCCc1nc2ccc(OCC(=O)N3CCOCC3)cc2c(=O)n1Cc1ccc(-c2ccccc2-c2nn[nH]n2)cc1    95
CCCCc1ncc([N+](=O)[O-])c(=O)n1Cc1ccc(-c2ccccc2-c2nn[nH]n2)cc1    73
